outcome measure: melting point (°C)

Query block: So what's the measured melting point for this one? COc1ccc(Cl)c(C2COCCCN2c2cc(C)nc(N)n2)c1 (racemic)
Result block: 220

a = Cc1cc(N2CCCOC[C@H]2c2ccc(C#N)cc2Cl)nc(N)n1 (single isomer, unassigned)
b = Cc1cc(N2CCCOC[C@@H]2c2cc(S(C)(=O)=O)ccc2Cl)nc(N)n1 (single isomer, unassigned)
Query block: Consider entries a and b . Which has the numerically lower melting point? # answer = label of selected item
Result block: b
(b: 120 °C, a: 220 °C)

---

System: XBP1(u)-luciferase splicing reporter in HepG2 hepatoma cells
Experiment: HepG2 XBP1 reporter assay (XBP1(u)-Luc)
Assay type: cell-based
Conditions: Homo sapiens, 6 hours after compound addition, Table 4
outcome measure: IC50

Query block: So what's the measured IC50 for this one? Cc1cc(N2CCCOCC2c2cc(C)c(N)cc2Cl)nc(N)n1 (stereo not drawn) [C-16]
Result block: < 600 nM

Query block: So what's the measured IC50 for this one? Cc1cc(N2CCCOC[C@@H]2c2cc3c(cc2Cl)OCCO3)nc(N)n1 [C-70]
Result block: < 600 nM

Query block: So what's the measured IC50 for this one? CCOc1cc(Cl)c(C2COCCCN2c2cc(C)nc(N)n2)cc1Cl (stereo not drawn) [C-41]
Result block: < 600 nM

Query block: So what's the measured IC50 for this one? COc1cc(Cl)c([C@H]2COCCCN2c2cc(C)nc(N)n2)cc1OC [C-80]
Result block: < 600 nM

Query block: So what's the measured IC50 for this one? CCOc1cc(Cl)c([C@H]2COCCCN2c2cc(C)nc(N)n2)cc1OCC [C-103]
Result block: < 600 nM

Query block: So what's the measured IC50 for this one? CSCOc1ccc([C@@H]2COCCCN2c2cc(C)nc(N)n2)c(Cl)c1 [C-122]
Result block: < 600 nM

Query block: So what's the measured IC50 for this one? Cc1cc(N2CCCOCC2c2cc(F)c(C)cc2Cl)nc(N)n1 (stereo not drawn) [C-2]
Result block: 600 to 2000 nM

Query block: So what's the measured IC50 for this one? COc1cc([C@@H]2COCCCN2c2cc(C)nc(N)n2)c(Cl)cc1O [C-79]
Result block: ≥ 5000 nM

Query block: So what's the measured IC50 for this one? CSCOc1ccc([C@H]2COCCCN2c2cc(C)nc(N)n2)c(Cl)c1 [C-121]
Result block: ≥ 5000 nM

---

System: XBP1(u)-luciferase splicing reporter in HepG2 hepatoma cells
Assay: HepG2 XBP1 reporter assay (XBP1(u)-Luc)
Assay type: cell-based
Conditions: Homo sapiens, 6 hours after compound addition, Table 4
outcome measure: IC50

Completed entries (count: 5):
Query block: So what's the measured IC50 for this one? Cc1cc(N2CCCOCC2c2cc3c(cc2Cl)OCCCO3)nc(N)n1 (stereo not shown)
Result block: < 600 nM

Query block: So what's the measured IC50 for this one? Cc1cc(N2C[C@H](C)COC[C@H]2c2ccc(CS(C)(=O)=O)cc2Cl)nc(N)n1
Result block: ≥ 5000 nM

Query block: So what's the measured IC50 for this one? Cc1cc(N2CCCOC[C@@H]2c2ccc(NC3COC3)cc2Cl)nc(N)n1
Result block: < 600 nM

Query block: So what's the measured IC50 for this one? CCOc1cc(Cl)c([C@H]2COCCCN2c2cc(C)nc(N)n2)cc1OC
Result block: < 600 nM

Query block: So what's the measured IC50 for this one? Cc1cc(N2CCCOCC2c2cc3c(cc2Cl)OCCO3)nc(N)n1 (stereo not shown)
Result block: 600 to 2000 nM

Others:
Query block: So what's the measured IC50 for this one? Cc1cc(N2CCCOCC2c2cc3c(cc2Cl)CCC3)nc(N)n1 (stereo not shown)
Result block: 600 to 2000 nM

Query block: So what's the measured IC50 for this one? Cc1cc(N2CCCOC[C@@H]2c2cc(C(F)(F)F)c(N)cc2Cl)nc(N)n1
Result block: < 600 nM

Query block: So what's the measured IC50 for this one? COc1cc(Cl)c(C2COCCCN2c2cc(C)nc(N)n2)cc1C (stereo not shown)
Result block: 600 to 2000 nM

Query block: So what's the measured IC50 for this one? Cc1cc(N2CCCOCC2c2cc(F)c(F)cc2Cl)nc(N)n1 (stereo not shown)
Result block: 600 to 2000 nM

Query block: So what's the measured IC50 for this one? Cc1cc(Cl)c(C2COCCCN2c2cc(N)nc(N)n2)cc1C (stereo not shown)
Result block: 600 to 2000 nM

Reference for the values: patent US11440907B1
